Target: T1, human serum albumin (human, UniProt P02768 25-609)
T1 construct: mature; Bought protein; biotinylated in the Octet and HTRF assays; also called HSA; HuSA
Assay: BLI (Octet), biotinylated albumin on SA sensor, pH 6.0
pKd: −log10 of the molar value.
Here the recorded pKd is given for each entry.
property name: pKd

[[record]]
binder = "HSA-22 (designed binder) MIPRGLSEAKPATPEIQEIVDKVKPQLEEKTNETYGKLEAVQYKTQVLANWYQQRWPGSTNYYIKVRAGDNKYMHLKVFNGPWHNYGESSGADRVLTGYQVDKNKDDELTGFHHHHHH"
observed_value = 7.35

[[record]]
binder = "HSA-31 (designed binder) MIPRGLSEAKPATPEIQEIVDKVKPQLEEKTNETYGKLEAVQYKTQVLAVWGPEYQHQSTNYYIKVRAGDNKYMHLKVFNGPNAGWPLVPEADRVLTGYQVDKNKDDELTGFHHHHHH"
observed_value = 7.68

[[record]]
binder = "HSA-20 (designed binder) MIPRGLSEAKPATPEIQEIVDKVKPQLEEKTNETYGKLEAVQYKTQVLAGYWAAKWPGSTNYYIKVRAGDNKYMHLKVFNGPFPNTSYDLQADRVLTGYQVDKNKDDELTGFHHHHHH"
observed_value = 7.63

[[record]]
binder = "HSA-41 (designed binder, also called HSA-41 parent; HSA-41 AH parent) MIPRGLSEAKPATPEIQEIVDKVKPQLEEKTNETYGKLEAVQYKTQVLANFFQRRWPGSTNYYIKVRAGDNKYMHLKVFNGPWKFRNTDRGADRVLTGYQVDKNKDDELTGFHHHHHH"
observed_value = 8.15

[[record]]
binder = "HSA-36 (designed binder) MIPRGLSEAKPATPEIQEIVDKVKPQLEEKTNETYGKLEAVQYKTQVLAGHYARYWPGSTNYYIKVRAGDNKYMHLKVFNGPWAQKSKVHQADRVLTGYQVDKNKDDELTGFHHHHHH"
observed_value = 6.88

[[record]]
binder = "HSA-18 (designed binder, also called HSA-18 monomer) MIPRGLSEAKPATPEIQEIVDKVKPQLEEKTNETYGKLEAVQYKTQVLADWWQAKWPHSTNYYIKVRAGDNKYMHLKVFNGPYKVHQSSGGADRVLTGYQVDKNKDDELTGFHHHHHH"
observed_value = 7.75

[[record]]
binder = "HSA-37 (designed binder) MIPRGLSEAKPATPEIQEIVDKVKPQLEEKTNETYGKLEAVQYKTQVLAGFWASKWPGSTNYYIKVRAGDNKYMHLKVFNGPFTAVSKKDAADRVLTGYQVDKNKDDELTGFHHHHHH"
observed_value = 6.87

